target: Tubulin; assay: Inhibition of tubulin (unknown origin) polymerization incubated 15 mins prior to GTP addition by spectrophotometry
Measured IC50 values are reported for all entries that follow.
Measurement name: IC50

Smiles text	Target desc	Measurement name	Result
COc1cc(C(=O)c2ccn(Cc3ccccc3)c2)cc(OC)c1OC	Tubulin	IC50	> 40 µM
COc1cc(C(=O)c2cc[nH]c2)cc(OC)c1OC	Tubulin	IC50	> 40 µM
COc1cc(C(=O)c2ccn(C)c2)cc(OC)c1OC	Tubulin	IC50	> 40 µM
